Target: Bcl-xL, Q07817
Sequence (Q07817 1-209): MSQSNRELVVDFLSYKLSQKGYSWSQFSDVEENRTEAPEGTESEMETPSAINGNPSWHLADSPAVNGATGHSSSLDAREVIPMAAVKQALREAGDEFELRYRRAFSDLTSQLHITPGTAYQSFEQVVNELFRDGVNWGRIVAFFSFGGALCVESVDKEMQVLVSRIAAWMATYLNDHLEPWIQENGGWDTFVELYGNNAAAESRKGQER
Experiment: peptide SPOT array, c-Myc-tagged receptor at 1 uM or 100 nM, anti-c-Myc-Cy3
VALUE_TYPE: SPOT signal as a fraction of Bim BH3's signal on the same receptor and array

# BINDER, RECORDED_NUMBER
rows = [
    ("FSEFIGMIQEIQQAAERLERNFVDSR [RNF123]", 0.03),
    ("DIDEGLYSRQLYVLGHEAMKRLQTSS [UBA1]", 0.05),
    ("LDFTFVCPTEIIAFGDRLEEFRSINT [PRDX4]", 0.06),
    ("FVDINPLTGIILKAAKRFQINIYVKK [SCARB2]", 0.16),
]

src = paper PMC4072508
